Where do the numbers come from? From patent US20100222258A1.

# test_target: T1, TNF-R1 (a protein having the amino acid sequence, Accession No. M58286 registered at GENBANK) (UniProt P19438 30-211, limits assumed)
# T1 construct: also called TNF receptor having a molecular weight of 55 kilo daltons
# T1 sequence (looked up): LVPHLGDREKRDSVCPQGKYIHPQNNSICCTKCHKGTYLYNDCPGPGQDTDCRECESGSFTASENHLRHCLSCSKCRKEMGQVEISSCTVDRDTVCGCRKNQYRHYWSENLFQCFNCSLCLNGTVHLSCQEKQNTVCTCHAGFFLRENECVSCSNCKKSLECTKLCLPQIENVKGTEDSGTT
# assay_protocol: SPR (BIACORE 2000), receptor on sensor tip; grade 4 = two times or more that of recombinant TNF-α
observed_property: binding affinity relative to recombinant TNF-α

Task item: What value of binding affinity relative to recombinant TNF-α has been reported for the following binder? TNF mutant protein of clone No. 23 (ligand, Mutant of lysine-replaced TNF, made in E. coli) VRSSSRTPSDMPVAHVVANPQAEGQLQWLNRRANALLANGVELRDNQLVVPSEGLYLIYSQVLFSGQGCPSTHVLLTHTISRITTAYSGPVNLLSAIRSPCQRETPEGAEANPWYEPIYLGGVFQLEPGDRLSAEINRPDYLDFAESGQVYFGIIAL
Reply: ≥ 2 fold

Task item: What do we get for TNF mutant protein of clone No. 25 (ligand, Mutant of lysine-replaced TNF, made in E. coli) VRSSSRTPSDMPVAHVVANPQAEGQLQWLNRRANALLANGVELRDNQLVVPSEGLYLIYSQVLFSGQGCPSTHVLLTHTISRISKTYSHPVNLLSAIRSPCQRETPEGAEANPWYEPIYLGGVFQLEPGDRLSAEINRPDYLDFAESGQVYFGIIAL ?
Reply: ≥ 2 fold

Task item: What do we get for TNF mutant protein of clone No. 31 (ligand, Mutant of lysine-replaced TNF, made in E. coli) VRSSSRTPSDMPVAHVVANPQAEGQLQWLNRRANALLANGVELRDNQLVVPSEGLYLIYSQVLFSGQGCPSTHVLLTHTISRISKTYSHPVNLLSAIRSPCQRETPEGAEANPWYEPIYLGGVFQLEPGDRLSAEINRPDYLDFAESGQVYFGIIAL ?
Reply: ≥ 2 fold
